- Tested on: Enterococcus sp.
- test protocol: in vitro antibacterial evaluation, MIC by broth dilution
- Assay type: cell-based
- reported conditions: Enterococcus faecalis (GC 2242); broth dilution, 18 hours at 35° C.
endpoint name: MIC Enterococcus faecalis (GC 2242) (µg/mL)

compound	experimental value
CC(c1ccccc1)C1NC(=O)CNC(=O)C(CO)NC(=O)C(C(O)C2CNC(=N)N2C2OC(CO)C(O)C(O)C2O)NC(=O)C(C(O)C2CNC(=N)N2)NC(=O)C(Cc2ccc(OC3OC(CO)C(OC4OC5COC(CC67CC8CC(CC(C8)C6)C7)OC5C(O)C4O)C(O)C3O)cc2)NC1=O (stereo not shown) [Example 129]	2
CCC(CC)C1OCC2OC(OC3C(CO)OC(Oc4ccc(CC5NC(=O)C(C(C)c6ccccc6)NC(=O)CNC(=O)C(CO)NC(=O)C(C(O)C6CNC(=N)N6C6OC(CO)C(O)C(O)C6O)NC(=O)C(C(O)C6CNC(=N)N6)NC5=O)cc4)C(O)C3O)C(O)C(O)C2O1 (stereo not shown) [Example 116]	2
CC(c1ccccc1)C1NC(=O)CNC(=O)C(CO)NC(=O)C(C(O)C2CNC(=N)N2C2OC(CO)C(O)C(O)C2O)NC(=O)C(C(O)C2CNC(=N)N2)NC(=O)C(Cc2ccc(OC3OC(COC(=O)C(c4ccccc4)c4ccccc4)C(OC4OC(CO)C(O)C(O)C4O)C(O)C3O)cc2)NC1=O (stereo not shown) [Example 96b]	4
CCCC(CCC)C(=O)OCC1OC(OC2C(CO)OC(Oc3ccc(CC4NC(=O)C(C(C)c5ccccc5)NC(=O)CNC(=O)C(CO)NC(=O)C(C(O)C5CNC(=N)N5C5OC(CO)C(O)C(O)C5O)NC(=O)C(C(O)C5CNC(=N)N5)NC4=O)cc3)C(O)C2O)C(O)C(O)C1O (stereo not shown) [Example 99c]	4

Measured values drawn from patent US6914045B2 for this set.
